target: PAR2 (HT-29 cells, trypsin activation) (Homo sapiens); construct: host or cells: HT-29 cells; test: Ca FLIPR TETRA assay, ANTAGONIST mode, stimulation with 3.1 U/mL trypsin; assay type: cell-based; conditions: HT-29 cells, antagonist mode, stimulation with 3.1 U/mL trypsin
Sequence (P55085 26-397): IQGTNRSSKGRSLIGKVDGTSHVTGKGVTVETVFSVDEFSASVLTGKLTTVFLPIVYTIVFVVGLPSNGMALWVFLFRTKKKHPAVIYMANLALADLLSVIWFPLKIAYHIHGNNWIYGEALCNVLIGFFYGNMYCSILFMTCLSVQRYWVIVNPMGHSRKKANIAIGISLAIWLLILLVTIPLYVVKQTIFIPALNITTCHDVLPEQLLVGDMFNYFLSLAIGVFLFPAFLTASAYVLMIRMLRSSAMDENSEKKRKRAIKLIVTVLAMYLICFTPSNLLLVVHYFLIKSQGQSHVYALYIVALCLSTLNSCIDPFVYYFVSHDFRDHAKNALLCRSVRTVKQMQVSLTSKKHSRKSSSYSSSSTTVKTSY

>  <compound>
Cc1n[nH]c(C(=O)N2CCN(C(=O)c3cn4nc(-c5ccc(F)cc5)cc(C(C)C)c4n3)CC2)n1 [Compound I-552]

>  <measured.target>
PAR2 (HT-29 cells, trypsin activation) (Homo sapiens)

>  <reading.unit>
nM

>  <IC50>
720

$$$$
>  <compound>
CC(C)(C)c1cc(-c2ccc(F)c(F)c2)nn2cc(C(=O)N3CCNC(=O)C3(C)C)nc12 [Compound I-352]

>  <measured.target>
PAR2 (HT-29 cells, trypsin activation) (Homo sapiens)

>  <reading.unit>
nM

>  <IC50>
1.5

$$$$
>  <compound>
Cc1ccc(-c2cc(C(C)C)c3nc(C(=O)N4CCN(C(=O)C(C)(C)O)CC4(C)C)cn3n2)cc1F [Compound I-251]

>  <measured.target>
PAR2 (HT-29 cells, trypsin activation) (Homo sapiens)

>  <reading.unit>
nM

>  <IC50>
16.6

$$$$
>  <compound>
CC(C)(C)c1cc(-c2ccc(F)cc2)nn2cc(C(=O)N3CCN(c4cn[nH]n4)C(=O)C3(C)C)nc12 [Compound I-359]

>  <measured.target>
PAR2 (HT-29 cells, trypsin activation) (Homo sapiens)

>  <reading.unit>
nM

>  <IC50>
1.1

$$$$
>  <compound>
CC(C)(C)OC(=O)N1CCN(C(=O)c2cn3nc(-c4ccc(F)cc4)cc(C(C)(C)C)c3n2)C(C)(C)C1 [Compound I-190]

>  <measured.target>
PAR2 (HT-29 cells, trypsin activation) (Homo sapiens)

>  <reading.unit>
nM

>  <IC50>
4.8

$$$$
>  <compound>
CC(C)c1cc(-c2ccc(C(F)F)cc2)nn2cc(C(=O)N3CCN(C(=O)c4nc[nH]n4)CC3(C)C)nc12 [Compound I-294]

>  <measured.target>
PAR2 (HT-29 cells, trypsin activation) (Homo sapiens)

>  <reading.unit>
nM

>  <IC50>
13.7

$$$$
>  <compound>
Cc1cc(-c2cc(C(C)C)c3nc(C(=O)N4CN(Cc5ccccc5)C(=O)C4(C)C)cn3n2)ccc1F [Compound I-442]

>  <measured.target>
PAR2 (HT-29 cells, trypsin activation) (Homo sapiens)

>  <reading.unit>
nM

>  <IC50>
150

$$$$

* * *

target: PAR2 (HT-29 cells, SLIGKV activation) (Homo sapiens, UniProt P55085); construct: host or cells: HT-29 cells; experiment: Ca FLIPR TETRA assay, ANTAGONIST mode, stimulation with 8 μM SLIGKV; type: cell-based; conditions: HT-29 cells, antagonist mode, stimulation with 8 μM SLIGKV
Sequence (P55085 26-397): as above
pIC50: −log10 of the molar value.

>  <compound>
COC(=O)C1CC(C(=O)N2CCN(C(=O)c3cn4nc(-c5ccc(Cl)cc5)cc(C(C)C)c4n3)C(C)(C)C2)C1 (stereo not drawn) [Compound I-544]

>  <measured.target>
PAR2 (HT-29 cells, SLIGKV activation) (Homo sapiens, UniProt P55085)

>  <pIC50>
8.82

$$$$
>  <compound>
COC1CC(C(=O)N2CCN(C(=O)c3cn4nc(-c5ccc(F)c(Cl)c5)cc(C(C)C)c4n3)C(C)(C)C2)C1 (stereo not drawn)

>  <measured.target>
PAR2 (HT-29 cells, SLIGKV activation) (Homo sapiens, UniProt P55085)

>  <pIC50>
8.08

$$$$
>  <compound>
COC(=O)C1(C)CCC(C(=O)N2CCN(C(=O)c3cn4nc(-c5ccc(Cl)cc5)cc(C(C)(C)C)c4n3)C(C)(C)C2)CC1 (stereo not drawn)

>  <measured.target>
PAR2 (HT-29 cells, SLIGKV activation) (Homo sapiens, UniProt P55085)

>  <pIC50>
9.10

$$$$
